molecular target: Prostaglandin G/H synthase 1 (Ovis aries); details: at 50 µM
Description: Inhibition of ovine COX1 at 50 uM by peroxidase activity-based colorimetric assay
Activity calls are given as the source filed them. No cut-off for these calls is given here.
measuredEndpoint: inhibition

Please review the following examples before continuing.
[
  {
    "compoundStructureString": "Cc1onc(-c2ccc(Cl)o2)c1-c1ccc([N+](=O)[O-])cc1",
    "experimentalResult": "inactive"
  },
  {
    "compoundStructureString": "Nc1onc(-c2ccc(Cl)o2)c1-c1ccccc1",
    "experimentalResult": "94%"
  },
  {
    "compoundStructureString": "O=C(O)Cc1onc(-c2ccc(Cl)o2)c1-c1ccccc1",
    "experimentalResult": "32%"
  },
  {
    "compoundStructureString": "Cc1onc(-c2ccc(Cl)o2)c1-c1ccccc1",
    "experimentalResult": "69%"
  },
  {
    "compoundStructureString": "CCc1onc(-c2ccc(Cl)o2)c1-c1ccccc1",
    "experimentalResult": "55%"
  }
]

## Task Please look at this compound and report its inhibition: "Cc1onc(-c2ccc(Cl)o2)c1-c1ccc(N)cc1"
## Result 78%

## Task Please look at this compound and report its inhibition: "CCCc1onc(-c2ccc(Cl)o2)c1-c1ccccc1"
## Result 17%

## Task Please look at this compound and report its inhibition: "CC(=O)N(C(C)=O)c1onc(-c2ccc(Cl)o2)c1-c1ccccc1"
## Result 25%
